B1: POU domain, class 3, transcription factor 3, residues 408 to 463; numbered along this chain, P20264 (parent)
chain: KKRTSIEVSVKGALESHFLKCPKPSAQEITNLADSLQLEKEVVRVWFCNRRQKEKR

variants of: B1; experiment: abundance fitness (aPCA) (normalised: wild type 0, dead -1); higher = more abundant; growth selection in yeast, the domain comes from the species named; details: Homo sapiens
measurement.label: abundance fitness

{"columns": ["seq.string", "measured"],
 "data": [
  ["KKMTSIEVSVKGALESHFLKCPKPSAQEITNLADSLQLEKEVVRVWFCNRRQKEKR [R3M]", 0.045],
  ["KKRTSIEVSVKGALESHFLKCPKPSAQEITNLADSLQLEKEVQRVWFCNRRQKEKR [V43Q]", -0.88],
  ["KKRTSIEVSVKGALESHFLKCPKPSAQEITNLADSLQLEKEVVRVWFCLRRQKEKR [N49L]", -0.357],
  ["KKRTSIEVSVKGALESHFLKCPKPSAQEIQNLADSLQLEKEVVRVWFCNRRQKEKR [T30Q]", 0.079],
  ["KKRTSIEVSVKGANESHFLKCPKPSAQEITNLADSLQLEKEVVRVWFCNRRQKEKR [L14N]", -1.01],
  ["KKRTSINVSVKGALESHFLKCPKPSAQEITNLADSLQLEKEVVRVWFCNRRQKEKR [E7N]", 0.063],
  ["KKRTSIEVSVKGALESHFLKCPKPSAQEIMNLADSLQLEKEVVRVWFCNRRQKEKR [T30M]", -0.057],
  ["KKRTSIEVSVKGALESHFLKCPKPRAQEITNLADSLQLEKEVVRVWFCNRRQKEKR [S25R]", -0.398],
  ["KKRTSIEVSVKGALESHFLKCPKPSAQEITNLADSLQLEKEEVRVWFCNRRQKEKR [V42E]", 0.032],
  ["KKRTSIEVSVKGALESHFLKCPKPSAQEITNLADSLQLEKEVVRRWFCNRRQKEKR [V45R]", -0.109],
  ["KKRTSIEVSVKGALESHFLKCPKPSAWEITNLADSLQLEKEVVRVWFCNRRQKEKR [Q27W]", -0.222],
  ["KKRTSIEVSVKGGLESHFLKCPKPSAQEITNLADSLQLEKEVVRVWFCNRRQKEKR [A13G]", -0.46],
  ["KKRTSIEVSVKGALESHFLKCPKPSAQEITNLADSLQLTKEVVRVWFCNRRQKEKR [E39T]", -0.074],
  ["KKRTSIEVSVKGALESHFLKCPKPKAQEITNLADSLQLEKEVVRVWFCNRRQKEKR [S25K]", -0.565],
  ["KKRTSIEVSVKGALESHFLKCPKPSAQEITNLADSLQLEKEVVRVWFCNRRQKVKR [E54V]", -0.252],
  ["KKRTSIEVSVKGALESHFLKDPKPSAQEITNLADSLQLEKEVVRVWFCNRRQKEKR [C21D]", -0.094],
  ["KKRTSIEVSVKGALVSHFLKCPKPSAQEITNLADSLQLEKEVVRVWFCNRRQKEKR [E15V]", -0.698],
  ["KKRTSIEVSVKGALESHFLKCPKPSAQEIENLADSLQLEKEVVRVWFCNRRQKEKR [T30E]", -0.107],
  ["KKRTSIEVSVKGALESHFLKCPKPSAQEITNLADSLQLEKEVVRVWFCNRRQHEKR [K53H]", -0.194],
  ["KKRTSIEVSVVGALESHFLKCPKPSAQEITNLADSLQLEKEVVRVWFCNRRQKEKR [K11V]", -0.085],
  ["KKRTSIEVSVKGALESHFLKCPKPSAQEITNLADSLQMEKEVVRVWFCNRRQKEKR [L38M]", -0.13],
  ["KKRTSIEVSVKGALESHFLKCPKPSAQEITNLADSLQLDKEVVRVWFCNRRQKEKR [E39D]", 0.124],
  ["KKRTSIEVSVKGALESHFEKCPKPSAQEITNLADSLQLEKEVVRVWFCNRRQKEKR [L19E]", -0.086],
  ["KKRTSIEVSVKGALESHFLKCPKPSAQEITNLADSLQSEKEVVRVWFCNRRQKEKR [L38S]", -0.699],
  ["KKRTSIEVSVKDALESHFLKCPKPSAQEITNLADSLQLEKEVVRVWFCNRRQKEKR [G12D]", 0.048],
  ["KKRTSIEVSVKGALESHFLKCPKPSAQEITNLADSLQLEKEVVSVWFCNRRQKEKR [R44S]", -0.55],
  ["KKRTSIEVSVKGALESHFLKCPKPSAQEITNLADSLQLEKEVVRVWFCNRRQYEKR [K53Y]", -0.288],
  ["KKRTSIEMSVKGALESHFLKCPKPSAQEITNLADSLQLEKEVVRVWFCNRRQKEKR [V8M]", 0.098],
  ["KKRTSIEVSVKGALESHFLKCPKPSAQEITNLIDSLQLEKEVVRVWFCNRRQKEKR [A33I]", -0.864],
  ["KKRTSIEVSVKGQLESHFLKCPKPSAQEITNLADSLQLEKEVVRVWFCNRRQKEKR [A13Q]", -0.099],
  ["KKRTSIEVSVKGALESHFLKCPKSSAQEITNLADSLQLEKEVVRVWFCNRRQKEKR [P24S]", -0.874],
  ["KKRTSIEVSVKGALESHFMKCPKPSAQEITNLADSLQLEKEVVRVWFCNRRQKEKR [L19M]", 0.033],
  ["KKRTSIEVSVKGALESHFLKCPKPTAQEITNLADSLQLEKEVVRVWFCNRRQKEKR [S25T]", -0.075],
  ["KKRTSIEVSVKGALESHFLKCPKPSAQEITNLADSLQLEKEVVRVWFCNRRSKEKR [Q52S]", 0.014],
  ["KKRTSIEVSVKGALESHFLKPPKPSAQEITNLADSLQLEKEVVRVWFCNRRQKEKR [C21P]", -0.719],
  ["KKRTSIEVSVKGALESHFLKCPKPSAQEITNLADSLQLEKEVVRVWFCNRRQKERR [K55R]", -0.089],
  ["KKRTSIEVSVKGALDSHFLKCPKPSAQEITNLADSLQLEKEVVRVWFCNRRQKEKR [E15D]", -0.753],
  ["KKRTSIEVSVKGALESHFLKCPKPSAQEITNLADSLQLEKEVVRVWFCVRRQKEKR [N49V]", -0.152],
  ["KKRTYIEVSVKGALESHFLKCPKPSAQEITNLADSLQLEKEVVRVWFCNRRQKEKR [S5Y]", 0.206],
  ["KKRTSIEVSVKGALESHFLKCPKPSAQEITNVADSLQLEKEVVRVWFCNRRQKEKR [L32V]", -0.245],
  ["KKRTSIEVSVKGRLESHFLKCPKPSAQEITNLADSLQLEKEVVRVWFCNRRQKEKR [A13R]", 0.018],
  ["KKRTSIEVSVKGALESHFLKCPKPSAQEITNLADSLQLEKEVVRVWFCNYRQKEKR [R50Y]", -0.889],
  ["KKRTSIEVSVKGALESHFLKCPKPSAQEITNLADSLQLEKEVVRVWFANRRQKEKR [C48A]", -0.12],
  ["KKRTSIEVSVKGALESHFLKCRKPSAQEITNLADSLQLEKEVVRVWFCNRRQKEKR [P22R]", -0.398],
  ["KKRTSIEVSVKGALESHFLKCPKPSTQEITNLADSLQLEKEVVRVWFCNRRQKEKR [A26T]", -0.081],
  ["KKRTSIEVSVKGALESHFLKCPKPSAQEITNLADSLQLEKEVVRVWFCNIRQKEKR [R50I]", -0.809]
]}
